Where these numbers come from: patent US8658604B2

System: Tryptase, from human lung
Test: Enzymatic assay, tryptase
Details: at 100 μM
Where a SMILES comes first, the peptide text is derived from it.
Values of Tryptase at 100 μM % strictly less than 30% map to Met, and values of at least 30% map to Not met.

- compound: "CC[C@H](C)[C@@H]1NC(=O)[C@@H]2CCCN2C(=O)[C@@H]2CCCN2C(=O)[C@H](CC(=O)O)NC(=O)[C@H](CO)NC(=O)[C@H](CCCCN)NC(=O)[C@H]([C@@H](C)O)NC(=O)[C@@H]2CSSC[C@H](NC1=O)C(=O)N[C@@H](CO)C(=O)N1CCC[C@@H]1C(=O)N[C@@H](CCC(=O)O)C(=O)N[C@@H](Cc1ccccc1)C(=O)N2 [Ex. 64] (HELM PEPTIDE1{F.C.T.K.S.D.P.P.I.C.S.[dP].E}$PEPTIDE1,PEPTIDE1,2:R3-10:R3|PEPTIDE1,PEPTIDE1,1:R1-13:R2$$$V2.0)"
  label: "Met"
- compound: "CCCC[C@@H]1NC(=O)[C@@H]2CCCN2C(=O)[C@H]2CCCN2C(=O)[C@H](Cc2ccc(O)cc2)NC(=O)[C@@H]2CSSC[C@H](NC1=O)C(=O)N[C@@H]([C@@H](C)O)C(=O)N[C@@H](C)C(=O)N[C@@H](CO)C(=O)N[C@@H](C1CCCCC1)C(=O)N1CCC[C@H]1C(=O)N1CCC[C@H]1C(=O)N[C@@H](CCC(N)=O)C(=O)N2 [Ex. 84] (HELM PEPTIDE1{[Nle].C.T.A.S.[O=C([C@@H](N[*:1])C1CCCCC1)[*:2]].P.P.Q.C.Y.[dP].P}$PEPTIDE1,PEPTIDE1,2:R3-10:R3|PEPTIDE1,PEPTIDE1,1:R1-13:R2$$$V2.0)"
  label: "Met"
- compound: "CC[C@H](C)[C@@H]1NC(=O)[C@@H]2CCCN2C(=O)[C@@H]2CCCN2C(=O)[C@H](CC(=O)O)NC(=O)[C@H](CO)NC(=O)[C@H](CCCCN)NC(=O)[C@H]([C@@H](C)O)NC(=O)[C@@H]2CSSC[C@H](NC1=O)C(=O)N[C@@H](CC(=O)O)C(=O)N1CCC[C@@H]1C(=O)N1CCC[C@H]1C(=O)N[C@@H](C1CCCCC1)C(=O)N2 [Ex. 39] (HELM PEPTIDE1{[O=C([C@@H](N[*:1])C1CCCCC1)[*:2]].C.T.K.S.D.P.P.I.C.D.[dP].P}$PEPTIDE1,PEPTIDE1,2:R3-10:R3|PEPTIDE1,PEPTIDE1,1:R1-13:R2$$$V2.0)"
  label: "Not met"
- compound: "CC[C@H](C)[C@@H]1NC(=O)[C@@H]2CCCN2C(=O)[C@H]2CCCN2C(=O)[C@H](CCCNC(=N)N)NC(=O)[C@@H]2CSSC[C@H](NC1=O)C(=O)N[C@@H]([C@@H](C)O)C(=O)N[C@@H](CCCCN)C(=O)N[C@@H](CO)C(=O)N[C@@H](CC(=O)O)C(=O)N1CCC[C@H]1C(=O)N1CCC[C@H]1C(=O)N[C@@H](Cc1ccc(O)cc1)C(=O)N2 [Ex. 18] (HELM PEPTIDE1{I.C.T.K.S.D.P.P.Y.C.R.[dP].P}$PEPTIDE1,PEPTIDE1,2:R3-10:R3|PEPTIDE1,PEPTIDE1,1:R1-13:R2$$$V2.0)"
  label: "Not met"
- compound: "CCCC[C@@H]1NC(=O)[C@@H]2CCCN2C(=O)[C@H]2CCCN2C(=O)[C@H](Cc2ccc(O)cc2)NC(=O)[C@@H]2CSSC[C@H](NC1=O)C(=O)N[C@@H]([C@@H](C)O)C(=O)N[C@@H](CCCCN)C(=O)N[C@@H](CO)C(=O)N[C@@H](CC(=O)O)C(=O)N1CCC[C@H]1C(=O)N1CCC[C@H]1C(=O)N[C@@H]([C@@H](C)CC)C(=O)N2 [Ex. 44] (HELM PEPTIDE1{[Nle].C.T.K.S.D.P.P.I.C.Y.[dP].P}$PEPTIDE1,PEPTIDE1,2:R3-10:R3|PEPTIDE1,PEPTIDE1,1:R1-13:R2$$$V2.0)"
  label: "Not met"
- compound: "CCCC[C@@H]1NC(=O)[C@H]([C@@H](C)O)NC(=O)[C@@H]2CSSC[C@H](NC(=O)[C@H]([C@@H](C)CC)NC(=O)[C@@H]3CCCN3C(=O)[C@@H]3CCCN3C(=O)[C@H](CC(=O)O)NC(=O)[C@H](CO)NC1=O)C(=O)N[C@@H](Cc1ccc(O)cc1)C(=O)N1CCC[C@@H]1C(=O)N1CCC[C@H]1C(=O)N[C@@H](Cc1ccccc1)C(=O)N2 [Ex. 23] (HELM PEPTIDE1{F.C.T.[Nle].S.D.P.P.I.C.Y.[dP].P}$PEPTIDE1,PEPTIDE1,2:R3-10:R3|PEPTIDE1,PEPTIDE1,1:R1-13:R2$$$V2.0)"
  label: "Met"
- compound: "CC[C@H](C)[C@@H]1NC(=O)[C@@H]2CCCN2C(=O)[C@@H]2CCCN2C(=O)[C@H](CC(=O)O)NC(=O)[C@H](CO)NC(=O)[C@H](CCCCN)NC(=O)[C@H]([C@@H](C)O)NC(=O)[C@@H]2CSSC[C@H](NC1=O)C(=O)N[C@@H](CC(=O)O)C(=O)N1CCC[C@@H]1C(=O)N1CCC[C@H]1C(=O)N[C@@H](Cc1ccccc1)C(=O)N2 [Ex. 2] (HELM PEPTIDE1{F.C.T.K.S.D.P.P.I.C.D.[dP].P}$PEPTIDE1,PEPTIDE1,2:R3-10:R3|PEPTIDE1,PEPTIDE1,1:R1-13:R2$$$V2.0)"
  label: "Not met"
